targetSystem: Bromodomain adjacent to zinc finger domain protein 2B (Homo sapiens) (UniProt Q9UIF8)
Sequence (Q9UIF8 whole entry, looked up, the tested form may be a part): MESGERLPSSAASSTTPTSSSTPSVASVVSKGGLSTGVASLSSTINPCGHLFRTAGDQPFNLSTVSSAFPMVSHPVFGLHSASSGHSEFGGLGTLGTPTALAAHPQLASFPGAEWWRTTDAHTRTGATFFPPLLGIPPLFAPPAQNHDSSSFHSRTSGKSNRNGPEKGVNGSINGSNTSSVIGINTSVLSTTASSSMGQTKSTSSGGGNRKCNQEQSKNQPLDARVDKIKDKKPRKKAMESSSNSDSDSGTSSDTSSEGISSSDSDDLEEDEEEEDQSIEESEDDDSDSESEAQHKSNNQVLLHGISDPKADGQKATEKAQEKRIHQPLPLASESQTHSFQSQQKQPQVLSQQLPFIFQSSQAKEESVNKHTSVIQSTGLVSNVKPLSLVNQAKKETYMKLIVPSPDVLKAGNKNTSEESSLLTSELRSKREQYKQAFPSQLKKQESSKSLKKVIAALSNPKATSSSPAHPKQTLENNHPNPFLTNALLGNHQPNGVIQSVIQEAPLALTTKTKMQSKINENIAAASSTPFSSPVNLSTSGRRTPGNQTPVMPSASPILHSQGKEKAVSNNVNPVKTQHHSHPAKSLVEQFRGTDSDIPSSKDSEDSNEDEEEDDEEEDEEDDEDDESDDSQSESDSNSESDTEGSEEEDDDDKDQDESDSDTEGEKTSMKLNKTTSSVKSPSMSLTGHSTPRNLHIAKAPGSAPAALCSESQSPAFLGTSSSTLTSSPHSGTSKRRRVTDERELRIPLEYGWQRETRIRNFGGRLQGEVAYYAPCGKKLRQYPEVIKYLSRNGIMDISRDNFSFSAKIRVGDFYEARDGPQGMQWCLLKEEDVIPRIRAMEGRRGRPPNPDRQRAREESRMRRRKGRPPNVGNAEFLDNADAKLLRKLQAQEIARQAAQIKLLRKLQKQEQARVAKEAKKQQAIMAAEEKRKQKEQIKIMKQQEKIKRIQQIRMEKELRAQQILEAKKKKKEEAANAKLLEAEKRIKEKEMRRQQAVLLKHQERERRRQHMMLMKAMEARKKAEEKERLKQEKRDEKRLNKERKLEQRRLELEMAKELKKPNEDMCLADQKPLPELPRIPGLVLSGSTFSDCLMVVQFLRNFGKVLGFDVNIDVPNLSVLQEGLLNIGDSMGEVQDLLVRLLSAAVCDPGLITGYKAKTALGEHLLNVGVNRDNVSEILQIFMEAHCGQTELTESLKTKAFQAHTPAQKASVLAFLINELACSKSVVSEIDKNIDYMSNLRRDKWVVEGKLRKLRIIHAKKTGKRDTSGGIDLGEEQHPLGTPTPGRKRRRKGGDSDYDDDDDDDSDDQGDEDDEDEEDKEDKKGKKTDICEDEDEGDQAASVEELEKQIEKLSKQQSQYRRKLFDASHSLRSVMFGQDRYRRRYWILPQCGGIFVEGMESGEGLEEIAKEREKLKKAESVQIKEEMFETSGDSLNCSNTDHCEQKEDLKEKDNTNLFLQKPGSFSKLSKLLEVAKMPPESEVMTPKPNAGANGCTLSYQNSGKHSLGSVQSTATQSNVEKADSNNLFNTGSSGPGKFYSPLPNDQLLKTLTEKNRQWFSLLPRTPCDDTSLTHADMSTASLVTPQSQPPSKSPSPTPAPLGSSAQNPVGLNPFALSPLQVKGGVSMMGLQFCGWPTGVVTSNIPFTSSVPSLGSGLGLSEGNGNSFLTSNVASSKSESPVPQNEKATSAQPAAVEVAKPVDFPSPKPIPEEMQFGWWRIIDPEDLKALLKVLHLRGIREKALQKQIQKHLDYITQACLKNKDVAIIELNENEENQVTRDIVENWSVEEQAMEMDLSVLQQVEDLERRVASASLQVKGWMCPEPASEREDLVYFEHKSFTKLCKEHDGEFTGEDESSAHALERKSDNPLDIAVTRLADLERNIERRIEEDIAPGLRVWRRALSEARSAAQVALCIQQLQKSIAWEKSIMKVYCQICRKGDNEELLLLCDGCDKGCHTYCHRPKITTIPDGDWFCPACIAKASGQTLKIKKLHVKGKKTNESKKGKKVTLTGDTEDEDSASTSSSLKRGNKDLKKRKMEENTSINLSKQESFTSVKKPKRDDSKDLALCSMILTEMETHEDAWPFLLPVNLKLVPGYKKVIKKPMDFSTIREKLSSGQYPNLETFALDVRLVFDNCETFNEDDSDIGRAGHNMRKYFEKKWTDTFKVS
assayName: qHTS Assay for Inhibitors of BAZ2B; further: nearly all actives have a fitted effect of over 60% in size
conditionNotes: AlphaScreen BAZ2B-H3K14Ac peptide displacement; series mostly up to 114 µM
Out of some 360,000 compounds screened, about 16,000 (4.4%) were called active. About 9% were inconclusive and are not listed. The call rests on the fitted dose curve; in most records, active means well fitted inhibition curve with a large enough effect; inconclusive means small, poorly fitted or top-dose-only effect; inactive means no such curve, though single readings can be large or run the other way. Many of the other results were omitted from the sample, so actives are more common in it than they were.
Allowed answers: active, inactive

Solved cases below.
>>> df
                                   compound  labelclass
0  Brc1ccc(-c2csc(N/N=C/c3ccc4c(c3)OCO4)n2)cc1    inactive
1   COc1ccc(NC(=O)c2sc3nc[nH]c(=O)c3c2C)cc1    inactive
2  O=C(c1ccc2c(c1)N(Cc1ccc(Cl)cc1)C(=O)c1ccccc1S2(=O)=O)N1CCCCC1    inactive
3     C(=N\Nc1ccc2ccccc2n1)/c1ccc2c(c1)OCO2      active
4  COc1ccc(C(=O)CSc2c(C(C)C)cnc3c2c(=O)n(C)c(=O)n3C)cc1    inactive
5  CN(CC1CCCO1)S(=O)(=O)c1ccc(C(=O)Nc2ccc([N+](=O)[O-])cc2)cc1 (stereo not given)    inactive
6  COc1ccc(-c2noc(CCC(=O)N(C)c3ccccc3C)n2)cc1    inactive
7           Cc1noc(C)c1/C=N/Nc1ccc2ccccc2n1    inactive
8  Cc1ccc(NC(=O)CN2C(=O)CC(C)Sc3ccccc32)c(C)c1 (stereo not given)    inactive

Okay, next one:
Enquiry: Query: recorded result category for O=C(Nc1cc2c3c(c1)C1CCCC1CN3CC1CCCC21)c1ccc([N+](=O)[O-])cc1 (stereo not given) in this test
Return: active

###

targetSystem: Bromodomain adjacent to zinc finger domain protein 2B (Homo sapiens)
assayName: qHTS Assay for Inhibitors of BAZ2B; further: nearly all actives have a fitted effect of over 60% in size; further: potency means the concentration at half of the fitted maximal effect
conditionNotes: AlphaScreen BAZ2B-H3K14Ac peptide displacement; series mostly up to 114 µM
Excerpt: BAZ2B (bromodomain adjacent to zinc finger domain, 2B) belongs to a family of ubiquitously expressed bromodomain containing proteins, which biological function has not yet been elucidated. […] Yasgar, et al. Compound Management for Quantitative High-Throughput Screening. […] Inglese, et al. Quantitative high-throughput screening: a titration-based approach that efficiently identifies biological activities in large chemical libraries. […]
About 16,000 (4.4%) of roughly 360,000 compounds were called active. Roughly 9% stayed inconclusive and do not appear here. The full list was thinned out, with actives kept by preference.
measuredMetric: Potency

Solved entries (count: 10):
In [3]: df
Out[3]:
                                   compound     valuemeasured
0  COc1ccc(-c2cc(C(=O)NC(Cc3c[nH]c4ccccc34)C(=O)O)c(C)o2)cc1OC (configuration not stated)  50.1 µM (active)
1  Cc1ccc(CNC(=O)CSC2=Nc3ccccc3C3=NC(C)C(=O)N23)cc1 (configuration not stated)          inactive
2  CC(=O)NC(Cc1c[nH]c2ccccc12)C(=O)O (configuration not stated)          inactive
3  COc1ccccc1CN1CCN(Cc2cc(OC)c(OC)cc2OC)CC1  50.1 µM (active)
4  CNCC(O)CN1CCN(c2ccccc2OC)CC1 (configuration not stated)          inactive
5  COc1ccccc1N1CCN(Cc2cc(OC)c3c(c2)OCO3)CC1          inactive
6  CC(O)CNCCOc1cccc(Oc2ccccc2)c1 (configuration not stated)  50.1 µM (active)
7  COc1ccccc1CN1CCCC(N2CCN(c3ccc(F)cc3)CC2)C1 (configuration not stated)          inactive
8   COc1ccccc1N1CCN(Cc2ccc(OC)c3ccccc23)CC1  28.2 µM (active)
9                   COCCNCCOCCOc1cccc(OC)c1          inactive

Enquiry: State the recorded Potency for this entry: c1ccc(C(c2ccccc2)N2CCN(Cc3nnnn3C3CCCCC3)CC2)cc1
Return: inactive

Enquiry: Sample COc1ccccc1Cn1c(CO)nc2ccccc21 — what was its Potency?
Return: inactive

###

targetSystem: Bromodomain adjacent to zinc finger domain protein 2B (Homo sapiens)
assayName: qHTS Assay for Inhibitors of BAZ2B; further: nearly all actives have a fitted effect of over 60% in size
conditionNotes: AlphaScreen BAZ2B-H3K14Ac peptide displacement; series mostly up to 114 µM
The campaign covered roughly 360,000 compounds. About 16,000 (4.4%) were called active. Inconclusive results (about 9%) are left out. Calls follow the shape of the dose curve; as a rule, active = well fitted inhibition curve with a large enough effect; inconclusive = small, poorly fitted or top-dose-only effect; inactive = no such curve, though single readings can be large or run the other way. This is one part of a sample in which actives are shown more often than they occur.
One label from this list, please: y = active, n = inactive

These recorded examples may help you get a feel for the data.
>>> print(df.to_string())
                                   compound  labelclass
0  CCN(CC)S(=O)(=O)c1cc(C(=O)Nc2ccccn2)ccc1C           n
1  O=C(/C=C/c1ccccc1)Nc1cc(-c2nc3cc(Cl)ccc3o2)ccc1Cl           n
2  COc1ccc(C(=O)N2CCC(c3nc4ccccc4o3)CC2)cc1           n
3  COc1cccc(NC(=O)c2ccc3c(SCC(=O)O)c4c(nc3c2)CCCC4)c1           n
4  CCN(CC)CCOc1ccc2c(c1)C(=NNC(=O)c1ccccn1)c1cc(OCCN(CC)CC)ccc1-2           y

Enquiry: Just curious, what result did Cc1ccccc1Nc1c(-c2ccccc2)nc2ncccn12 get here?
Return: n

Enquiry: Which outcome was entered for the compound CCN(C(=O)Cn1cnc2sc(C)c(S(=O)(=O)N3CCN(c4ncccn4)CC3)c2c1=O)c1ccccc1F in this test?
Return: n

Enquiry: Hi, sorry to bother you, what did the test record for Cc1n[nH]c(=O)nc1N/N=C/c1cccs1 ?
Return: y

Enquiry: In this assay, the call recorded for COc1ccc(-c2nn(CC(=O)Nc3ccccc3F)c3c2cnc2ccc(F)cc23)cc1 was what?
Return: n

Enquiry: # lookup: test call for COc1ccc(Nc2nc(=O)[nH]nc2C)cc1
Return: n

Enquiry: Could you please tell me the result logged for O=C(CCc1ccccc1)NNc1ccc(F)cc1 in this assay?
Return: n

Enquiry: Outcome logged for Cc1ccc2nc(N3CCN(c4cccc(Cl)c4)CC3)c3nnnn3c2c1 in this assay:
Return: n

Enquiry: Hello, I am checking results. What call was entered for O=C(CCOc1ccccc1)N(Cc1cccnc1)c1nc2ccc(Cl)cc2s1 ?
Return: n

Enquiry: What outcome does the record of this test show for Cc1cccc(C)c1NC(=O)CNC(=O)c1ccc2c(c1)OCCO2 ?
Return: n

Enquiry: Tell me the assay call for O=C(CCc1ccccc1)NCc1ccc2c(c1)CCN2C(=O)c1ccccc1 please.
Return: n

Enquiry: In this assay, the call recorded for CC(C)Cc1nnc(NC(=O)CCc2ccccc2)s1 was what?
Return: n

Enquiry: For COc1ccc(C(=O)COC(=O)c2ccc([N+](=O)[O-])s2)cc1OC , which call appears in the assay record?
Return: n

Enquiry: # outcome recorded in this test, key = Cc1nn(-c2ccc(F)cc2)c(-n2cccc2)c1C(=O)N1CCN(c2ccccc2)CC1
Return: n

###

targetSystem: Bromodomain adjacent to zinc finger domain protein 2B (Homo sapiens)
assayName: qHTS Assay for Inhibitors of BAZ2B; further: nearly all actives have a fitted effect of over 60% in size
conditionNotes: AlphaScreen BAZ2B-H3K14Ac peptide displacement; series mostly up to 114 µM
Screen size: about 360,000 compounds; about 16,000 (4.4%) were called active. About 9% were inconclusive and are not listed. Calls follow the shape of the dose curve; as a rule, active = well fitted inhibition curve with a large enough effect; inconclusive = small, poorly fitted or top-dose-only effect; inactive = no such curve, though single readings can be large or run the other way. This is one part of a sample in which actives are shown more often than they occur.
Give one outcome, nothing more. List: class 1 = active, class 0 = inactive

Illustrative cases are given below, each with its answer.
>>> print(df.to_string())
                                   compound  labelclass
0  CCOc1c(Br)cc(/C=C2\C(=O)N(CCC#N)N=C2C)cc1OC     class 0
1            CCCN1CCc2nc(N3CCN(C)CC3)ncc2C1     class 0
2  CCOc1ccc(NC(=O)CCC(=O)N2CC(C)Oc3ccc(C)cc32)cc1 (configuration not stated)     class 0
3  CCn1c(SCC(=O)c2ccc3ccccc3c2)nnc1-c1cccs1     class 0
4  COc1ccc(NC(C(=O)Nc2cccc(C(C)=O)c2)c2ccccc2)cc1 (configuration not stated)     class 1
5  Cc1ccc(-c2nn3c(=O)cc(CN4CCN(C(=O)Nc5cccc(C(F)(F)F)c5)CC4)nc3s2)cc1     class 0

Enquiry: I'd appreciate the recorded outcome for Cc1ccc(OCCSc2nc(-c3cccs3)nc3cc(=O)[nH]n23)cc1Cl from this test.
Return: class 1

Enquiry: Dear all, I need the recorded test outcome for Cc1ccc(-c2nc(SCc3ccc(Br)cc3)n3[nH]c(=O)cc3n2)cc1 , thank you.
Return: class 1

Enquiry: // return assay outcome for COc1ccc(NC(=O)[C@H](NC(=O)[C@@H]2Cc3ccccc3CN2)c2ccccc2)cc1
Return: class 0

Enquiry: Recorded test call requested for Cc1nc(SCCOc2ccc(Cl)cc2)[nH]c(=O)c1Cc1ccccc1
Return: class 0

Enquiry: Please state the recorded outcome for this compound: COc1ccc(CNC(=O)Cc2coc3ccc(C(C)C)cc23)cc1
Return: class 0

Enquiry: What outcome does the record of this test show for COC(C(=O)Nc1ccc(C(C)=O)cc1)c1ccccc1 (configuration not stated) ?
Return: class 0

Enquiry: Recorded call for CCCOc1ccc(NC(=O)CC2C(=O)N(c3ccccc3)C(=O)N2Cc2ccco2)cc1 (configuration not stated) ?
Return: class 0

Enquiry: Please let me know the test result on file for S=C(NCCc1ccccc1)NCC1CCCO1 (configuration not stated) .
Return: class 0

Enquiry: How was COc1ccc(Cn2c(C(=O)O)c(CNCCc3cccs3)c3ccc(OC)cc32)cc1 classified in this test?
Return: class 0

Enquiry: Write down the call the test reported for this compound. Item: Cc1ccc(-n2ncc(C(=O)N(C)Cc3ccccc3)c2-n2cccc2)cc1
Return: class 0

Enquiry: Each compound tested received a call. Report the one for COc1cc(CN2CC(C)CC(C)C2)cc([N+](=O)[O-])c1O (configuration not stated) .
Return: class 0

Enquiry: Field: outcome | Entry: Cc1cccc(-c2nc(SCc3ccc(Br)cc3)n3[nH]c(=O)cc3n2)c1
Return: class 0

Enquiry: // param item: CCOc1cccc2cc(-c3cn4c(n3)sc3cc(C)ccc34)c(=O)oc12 ; yields the recorded call
Return: class 0

Enquiry: Outcome? Cc1ccc2nc(-c3ccc(Br)cc3)cn2c1
Return: class 0

Enquiry: Which outcome was assigned to CCCC1CCC(=NNC(=S)NCCc2ccccc2)CC1 (configuration not stated) in this test?
Return: class 1

Enquiry: Called result for O=c1cc2nc(-c3ccccc3)nc(SCCOc3ccc(Cl)cc3)n2[nH]1
Return: class 1
